- test.target: Histone deacetylase 1 (Homo sapiens)
- Sequence (Q13547 whole entry): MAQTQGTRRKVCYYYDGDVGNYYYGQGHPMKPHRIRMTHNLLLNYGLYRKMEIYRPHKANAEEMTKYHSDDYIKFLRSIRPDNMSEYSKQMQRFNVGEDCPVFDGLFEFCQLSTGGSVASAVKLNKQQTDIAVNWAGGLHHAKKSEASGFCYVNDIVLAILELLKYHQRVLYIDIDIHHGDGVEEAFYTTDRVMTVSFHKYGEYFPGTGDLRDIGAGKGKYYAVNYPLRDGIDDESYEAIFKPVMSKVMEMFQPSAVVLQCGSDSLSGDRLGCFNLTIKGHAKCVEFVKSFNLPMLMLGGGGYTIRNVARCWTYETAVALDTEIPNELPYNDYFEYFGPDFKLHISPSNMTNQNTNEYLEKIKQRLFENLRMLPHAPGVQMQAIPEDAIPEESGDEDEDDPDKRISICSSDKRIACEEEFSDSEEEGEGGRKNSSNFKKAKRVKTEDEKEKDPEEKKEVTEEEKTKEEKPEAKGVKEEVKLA
- measurement.notes: Inhibition of HDAC1 (unknown origin) using fluorogenic tetrapeptide RHKK(Ac) substrate by fluorescence assay
Give IC50 for every item shown.
Reply numerically in nM, unit not repeated.

# input For the compound shown here, O=C1NCCC[C@@H]1C(=O)N[C@@H](CCCCCS)C(=O)Nc1ccccc1 , give the reported IC50.
# output 12

# input For the compound shown here, O=C1CCC[C@@H](C(=O)N[C@@H](CCCCCS)C(=O)Nc2ccccc2)N1 , give the reported IC50.
# output 15

# input For the compound shown here, O=C1NC[C@H](c2ccccc2)[C@@H]1C(=O)N[C@@H](CCCCCS)C(=O)Nc1ccccc1 , give the reported IC50.
# output 32

# input For the compound shown here, O=C1CCC[C@@H](C(=O)N[C@@H](CCCCCS)C(=O)NCc2cccc(OCc3ccccc3)c2)N1 , give the reported IC50.
# output 504

# input For the compound shown here, Cc1cccc(CCNC(=O)[C@H](CCCCCS)NC(=O)[C@@H]2CCCC(=O)N2)c1 , give the reported IC50.
# output 92

# input For the compound shown here, Cc1cccc(NC(=O)[C@H](CCCCCS)NC(=O)[C@@H]2CCCC(=O)N2)c1 , give the reported IC50.
# output 2

Taken from ChEMBL document CHEMBL3352570.
